EC50 overview
target: T1, huNav1.7α + β1-β2-β3 (human, UniProt Q15858 1-1988; A5A6L6 19-218; O60939 30-215; Q2KI11 23-215); assay: binding FACS, CHO FlpIn cells
T1 construct: Cell line (CHO FlpIn, HEK FlpIn, transient HEK293T) is named under assay; also called huNav1.7-beta1-beta2-beta3; human Nav1.7α with Navβ1, Navβ2 and Navβ3
Quick reminder: number only, in nM, skip the unit.

Consider the reported EC50 for these binders:
[
  {
    "binder": "F010302333 (VHH) VHH: EVQLVESGGGVVQPGGSLRLSCAASSRQFIRDVFTGWYRRAPGKQRELVARIYNEGNTNYADSAKGRFTISRDNAKKTVYLQMNSLRPEDTALYYCLFSGTISTGREYRSGDYWGQGTLVTVSS",
    "EC50, nM": 4.1
  },
  {
    "binder": "F010302338 (VHH) VHH: EVQLVESGGGVVQPGGSLRLSCAASHRAFIRDVFTGWYRRAPGKQRELVARIYESGNTQYADSAKGRFTISRDNAKKTVYLQMNSLRPEDTALYYCLFSGTISTGREYRSGDYWGQGTLVTVSS",
    "EC50, nM": 3.4
  }
]

// switching to the query binder
// EC50 lookup, key: F0103362B08 (VHH, entry includes the FLAG-HIS6 tag; also called F0103362B08 (parental)-FLAG-HIS6) VHH: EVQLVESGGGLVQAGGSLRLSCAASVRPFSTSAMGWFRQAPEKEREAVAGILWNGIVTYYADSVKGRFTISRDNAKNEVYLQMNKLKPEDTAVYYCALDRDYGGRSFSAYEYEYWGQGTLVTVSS
110
